# Tested on: DU-145 prostate
# assayMethodText: NCI tumour cell line growth inhibition, 48 h
Would you kindly list TGI for each of these compounds?
Answer with a number only, understood to be in µM.

Lab note: CC1=C(C(=O)Nc2ccc(F)c(Cl)c2)C(c2cccc(Cl)c2)NC(=O)N1 (stereo not given) gave TGI of 55.8

Value of measured TGI for the entry C[n+]1c2ccccc2c(NC2CCNCC2)c2[nH]c3ccccc3c21 : 4.32

Memo: CN(C)/[N+]([O-])=N/Oc1cc(Nc2ccc(C(=O)O)cc2)c([N+](=O)[O-])cc1[N+](=O)[O-] , reported TGI: 35.7

Short answer for NS(=O)(=O)c1ccc(-n2nc(-c3ccc(Cl)cc3)cc2C2=CC(=O)C=CC2=O)cc1 : TGI was 87.5

Note to self: TGI recorded for COc1cc(-c2ccc(-c3ccc(C(=N)N)s3)s2)cc(OC)c1OC was 5.83

Record CCOc1ccc2c(c1)/C(=C\C=C\C1CC(C)C3CC(OCC)CCC3N1CC)CC(C)N2CC (stereo not given) . Reported TGI: 2.25

// recorded TGI for CC(C)C[C@H](NC(=O)[C@@H](Cc1cccc2ccccc12)NC(=O)N1CCOCC1)B(O)O : 29.7
